Values compiled from the SangsterLogP compilation.

In this section, each of the molecules is paired with its reported logD.
- runDescription: method code SF-AS, from Krisztina, T.; Perjesi, P.; Vámos, J. (2001). Determination of logP for biologically active chalcones and cyclic chalcone analogs by RPTLC. Journal of Planar Chromatography - Modern TLC. 14, 42-46.
- conditionsUsed: pH 7.4

- smilesRepr: "O=C(C=Cc1ccccc1)c1ccccc1"
  logD: 3.62
- smilesRepr: "O=C1C(=Cc2ccccc2)Cc2ccccc21"
  logD: 3.66

----------
The entries below come with measured logP values attached.

- smilesRepr: "COc1cccc(/C=C2\\CCc3ccccc3C2=O)c1"
  logP: 4.42
- smilesRepr: "Cc1ccc(C=C2CCCc3ccccc3C2=O)cc1"
  logP: 5.1
- smilesRepr: "O=C1C(=Cc2cccc([N+](=O)[O-])c2)CCCc2ccccc21"
  logP: 4.32
- smilesRepr: "Cc1cccc(C=C2CCCc3ccccc3C2=O)c1"
  logP: 4.98
- smilesRepr: "O=C1C(=Cc2ccccc2Cl)CCCc2ccccc21"
  logP: 5.04
- smilesRepr: "O=C1C(=Cc2cccc(F)c2)CCCc2ccccc21"
  logP: 4.6
- smilesRepr: "Cc1ccccc1C=C1CCCc2ccccc2C1=O"
  logP: 4.92

----------
measuredEndpoint: logP

- smilesRepr: "CN(C)c1ccc(C=C2CCCc3ccccc3C2=O)cc1"
  val: 5.26
- smilesRepr: "COc1ccc(C=C2CCCc3ccccc3C2=O)cc1"
  val: 4.72
- smilesRepr: "O=C1/C(=C/c2ccccc2[N+](=O)[O-])CCCc2ccccc21"
  val: 4.07
- smilesRepr: "O=C1C(=Cc2ccccc2Br)CCCc2ccccc21"
  val: 5.04
- smilesRepr: "COc1ccccc1C=C1CCc2ccccc2C1=O"
  val: 4.43
- smilesRepr: "CN(C)c1ccc(/C=C/C(=O)c2ccccc2)cc1"
  val: 4.23
- smilesRepr: "O=C1C(=Cc2ccc(F)cc2)CCCc2ccccc21"
  val: 4.45
- smilesRepr: "COc1ccc(C=C2Cc3ccccc3C2=O)cc1"
  val: 3.91
- smilesRepr: "O=C1C(=Cc2ccccc2)CCCc2ccccc21"
  val: 4.48
- smilesRepr: "COc1cccc(C=C2Cc3ccccc3C2=O)c1"
  val: 3.97
- smilesRepr: "CN(C)c1ccc(C=C2CCc3ccccc3C2=O)cc1"
  val: 4.91
- smilesRepr: "COc1ccccc1C=C1Cc2ccccc2C1=O"
  val: 4.01
- smilesRepr: "COc1ccc(/C=C/C(=O)c2ccccc2)cc1"
  val: 3.67
- smilesRepr: "O=C1C(=Cc2ccc([N+](=O)[O-])cc2)CCCc2ccccc21"
  val: 4.15
- smilesRepr: "N#Cc1ccc(/C=C/C(=O)c2ccccc2)cc1"
  val: 2.93
- smilesRepr: "COc1ccc(C=C2CCc3ccccc3C2=O)cc1"
  val: 4.32
- smilesRepr: "COc1ccccc1C=C1CCCc2ccccc2C1=O"
  val: 4.69
- smilesRepr: "CN(C)c1ccc(C=C2Cc3ccccc3C2=O)cc1"
  val: 4.5
- smilesRepr: "COc1ccccc1C=CC(=O)c1ccccc1"
  val: 3.99
- smilesRepr: "O=C1C(=Cc2ccc(Br)cc2)CCCc2ccccc21"
  val: 5.22
- smilesRepr: "O=C1/C(=C\\c2ccccc2)CCc2ccccc21"
  val: 4.14
- smilesRepr: "O=C1C(=Cc2ccc(Cl)cc2)CCCc2ccccc21"
  val: 5.1
- smilesRepr: "COc1cccc(C=CC(=O)c2ccccc2)c1"
  val: 3.8
- smilesRepr: "O=C1C(=Cc2cccc(Br)c2)CCCc2ccccc21"
  val: 5.35
